target: UniProtKB O14757; assay: radiometric filter-binding kinase assay; settings: compound 0.1 µM
Sequence (O14757 whole entry, looked up): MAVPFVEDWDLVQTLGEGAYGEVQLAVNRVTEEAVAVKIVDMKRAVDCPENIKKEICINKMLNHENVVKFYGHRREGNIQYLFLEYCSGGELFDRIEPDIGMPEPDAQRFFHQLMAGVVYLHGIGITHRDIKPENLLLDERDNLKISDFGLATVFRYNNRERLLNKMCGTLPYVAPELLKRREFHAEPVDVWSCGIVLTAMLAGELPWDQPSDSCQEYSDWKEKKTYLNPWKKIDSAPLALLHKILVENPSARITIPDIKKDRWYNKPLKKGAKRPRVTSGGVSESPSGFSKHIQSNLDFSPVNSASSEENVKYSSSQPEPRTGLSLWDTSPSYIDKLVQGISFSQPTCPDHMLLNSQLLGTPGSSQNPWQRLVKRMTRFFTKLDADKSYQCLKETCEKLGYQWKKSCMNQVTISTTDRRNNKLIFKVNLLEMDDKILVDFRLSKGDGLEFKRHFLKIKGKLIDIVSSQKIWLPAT
property: residual activity (%)
Hi! Could you send only the number? It should be in %, unit omitted.

Which residual activity value belongs to COc1cc(O)c2c(c1)[C@H]1OC1C[C@H](O)[C@H](O)C(=O)/C=C\C[C@H](C)OC2=O (stereo partly drawn) ? 93

Also need Cc1ccc(Sc2cnc(Nc3cccc(Br)n3)s2)cc1C(=O)N1CCN(C(=O)CN)CC1 , thanks. 54

Further, for O=C(NCCCNc1nc(Nc2cccc(CN3CCOCC3)c2)ncc1C1CC1)C1CCC1 ? 93

Same for COc1ccc(N(C(=O)Nc2c(C)cccc2C)c2cc(Nc3ccc(N4CCN(C)CC4)cc3)ncn2)c(OC)c1 100

# repeat for NC(=O)c1cc2c(-c3cccc(-c4ccccc4)c3)cnc(N)c2s1 100

Continue with Cn1c(=O)c2c(ncn2C)n(C)c1=O 88

Then this compound: CC1=C(CO)C(=O)O[C@@H]([C@@H](C)[C@H]2CC[C@H]3[C@@H]4C[C@H]5O[C@]56[C@@H](O)C=CC(=O)[C@]6(C)C4CC[C@]23C)C1 (stereo partly drawn) 109

Now give it for c1ccc2c(-c3cnn4cc(-c5ccc(N6CCNCC6)cc5)cnc34)ccnc2c1 too. 101

Now this one: CCc1cncnc1N1CCN(Cc2nc3cc(C(F)(F)F)ccc3[nH]2)CC1 90

Same lookup for O=C(O)c1ccc(-c2c[nH]c3ncc(-c4ccccc4)cc23)cc1C1CCCC1 , please. 112

Others:
Quick check: residual activity of O=C(Nc1ccccc1-c1cn2c(CN3CCNCC3)csc2n1)c1cnc2ccccc2n1 ? 86

Now the compound C=CC(=O)N1CCC[C@@H](n2nc(-c3ccc(Oc4ccccc4)cc3)c3c(N)ncnc32)C1 76

Cool, now CN1CCN(CCOc2cc(OC3CCOCC3)c3c(Nc4c(Cl)ccc5c4OCO5)ncnc3c2)CC1 106

Same thing, different compound: O=C(N[C@@H](COc1ccc2[nH]c(=O)[nH]c2c1)c1ccccc1)c1cccn(Cc2ccc(F)c(F)c2)c1=O 96

* * *

molecular target: MAP3K5 (human) (UniProt Q99683); assay: radiometric filter-binding kinase assay; conditions: compound 0.01 µM
Sequence (Q99683 whole entry, looked up): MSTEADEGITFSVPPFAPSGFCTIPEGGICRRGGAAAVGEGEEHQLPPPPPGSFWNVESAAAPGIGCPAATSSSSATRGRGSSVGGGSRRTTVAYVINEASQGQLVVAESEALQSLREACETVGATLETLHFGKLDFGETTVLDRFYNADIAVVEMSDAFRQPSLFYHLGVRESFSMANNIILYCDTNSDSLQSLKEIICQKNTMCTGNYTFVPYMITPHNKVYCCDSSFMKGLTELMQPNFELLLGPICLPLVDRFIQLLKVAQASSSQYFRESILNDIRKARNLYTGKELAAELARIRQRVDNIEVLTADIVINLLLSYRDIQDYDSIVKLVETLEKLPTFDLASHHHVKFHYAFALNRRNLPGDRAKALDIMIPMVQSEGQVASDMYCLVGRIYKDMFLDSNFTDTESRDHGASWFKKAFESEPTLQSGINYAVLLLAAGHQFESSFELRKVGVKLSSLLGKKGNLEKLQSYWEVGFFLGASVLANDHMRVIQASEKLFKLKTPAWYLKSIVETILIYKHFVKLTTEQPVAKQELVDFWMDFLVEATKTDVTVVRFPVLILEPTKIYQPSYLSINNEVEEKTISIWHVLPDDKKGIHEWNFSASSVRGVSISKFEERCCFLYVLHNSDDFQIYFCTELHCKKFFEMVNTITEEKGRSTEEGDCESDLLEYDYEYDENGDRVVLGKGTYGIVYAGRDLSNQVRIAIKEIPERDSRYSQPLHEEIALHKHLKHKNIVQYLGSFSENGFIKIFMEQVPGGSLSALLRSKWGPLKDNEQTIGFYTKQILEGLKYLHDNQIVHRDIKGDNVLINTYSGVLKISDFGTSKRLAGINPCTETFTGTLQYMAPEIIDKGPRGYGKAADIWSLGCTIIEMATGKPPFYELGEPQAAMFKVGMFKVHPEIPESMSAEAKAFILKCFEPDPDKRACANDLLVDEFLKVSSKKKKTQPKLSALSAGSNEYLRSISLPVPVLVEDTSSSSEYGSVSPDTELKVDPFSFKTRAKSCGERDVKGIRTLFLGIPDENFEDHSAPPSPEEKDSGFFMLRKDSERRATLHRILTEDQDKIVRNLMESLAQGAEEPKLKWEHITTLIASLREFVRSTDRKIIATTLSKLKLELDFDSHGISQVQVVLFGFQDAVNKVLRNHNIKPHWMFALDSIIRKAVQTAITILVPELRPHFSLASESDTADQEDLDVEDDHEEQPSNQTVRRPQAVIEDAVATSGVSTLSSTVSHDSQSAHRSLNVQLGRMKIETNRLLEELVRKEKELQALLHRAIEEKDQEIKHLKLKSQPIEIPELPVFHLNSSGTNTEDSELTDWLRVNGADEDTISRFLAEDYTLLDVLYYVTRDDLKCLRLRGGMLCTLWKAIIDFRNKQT
The reader will find reported residual activity values listed item by item below.
Please reply with the bare figure in % and do not write the unit itself.

Example results:
Fill in: residual activity of COc1ccc(N(C(=O)Nc2c(C)cccc2C)c2cc(Nc3ccc(N4CCN(C)CC4)cc3)ncn2)c(OC)c1 is ___ 110

Now the same for CNC(=O)C1[C@H]2O[C@@](C)([C@@H]1N)n1c3ccccc3c3c4c(c5c6ccccc6n2c5c31)C(=O)NC4 (some centres undefined) 113

Follow-up item: O=C(Nc1nc2cc(C(F)(F)F)cc(NC3CC3)n2n1)c1cccnc1 98

Now consider a different molecule.
Data request, read-out residual activity, for COc1cc(O)c2c(c1)[C@H]1OC1C[C@H](O)[C@H](O)C(=O)/C=C\C[C@H](C)OC2=O (some centres undefined) 105

* * *

target: IKBKB (human) (UniProt O14920); assay: radiometric filter-binding kinase assay; settings: compound 1.0 µM
Sequence (O14920 whole entry, looked up): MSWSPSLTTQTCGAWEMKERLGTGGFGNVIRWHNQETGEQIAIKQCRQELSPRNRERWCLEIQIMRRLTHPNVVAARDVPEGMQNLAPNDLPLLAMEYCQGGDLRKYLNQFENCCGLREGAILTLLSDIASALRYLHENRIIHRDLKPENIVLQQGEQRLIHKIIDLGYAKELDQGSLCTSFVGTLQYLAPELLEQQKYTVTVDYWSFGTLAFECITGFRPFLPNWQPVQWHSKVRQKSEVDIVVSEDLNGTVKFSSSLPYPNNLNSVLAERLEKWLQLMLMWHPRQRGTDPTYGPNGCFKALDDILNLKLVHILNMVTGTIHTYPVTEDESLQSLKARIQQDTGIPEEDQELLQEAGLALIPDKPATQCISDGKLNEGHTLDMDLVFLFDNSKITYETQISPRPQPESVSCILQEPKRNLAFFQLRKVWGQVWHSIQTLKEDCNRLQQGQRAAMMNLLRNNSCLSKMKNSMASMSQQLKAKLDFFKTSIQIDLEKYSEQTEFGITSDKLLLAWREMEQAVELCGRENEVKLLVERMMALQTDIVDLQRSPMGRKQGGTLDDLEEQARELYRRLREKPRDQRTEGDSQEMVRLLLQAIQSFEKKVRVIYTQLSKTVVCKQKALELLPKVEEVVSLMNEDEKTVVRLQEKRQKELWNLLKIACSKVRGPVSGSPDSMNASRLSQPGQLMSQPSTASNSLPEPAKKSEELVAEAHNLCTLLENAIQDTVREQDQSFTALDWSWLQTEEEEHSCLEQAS
property: residual activity (%)
Reply with just the number (in %).

Use the examples below as a reference point.
Which residual activity value is on record for Cc1nc(-c2ccc(OCC(C)C)c(C#N)c2)sc1C(=O)O ? 100

Next up: CC1=C(CO)C(=O)O[C@@H]([C@@H](C)[C@H]2CC[C@H]3[C@@H]4C[C@H]5O[C@]56[C@@H](O)C=CC(=O)[C@]6(C)C4CC[C@]23C)C1 (stereo not given in full) 103

Here is the next item to consider.
Field request: residual activity | item: COc1cc(O)c2c(c1)/C=C/C[C@H](O)[C@H](O)C(=O)/C=C\C[C@H](C)OC2=O 95

// data source = the kinase profiling compilation of Christmann-Franck et al. (2016)
